biological target: ATP-dependent 6-phosphofructokinase (Trypanosoma brucei); assay: Inhibition of Trypanosoma brucei PFK-mediated ADP production using ATP/fructose-6-phosphate as substrate by luciferase based luminescence assay
Sequence (O15648 whole entry): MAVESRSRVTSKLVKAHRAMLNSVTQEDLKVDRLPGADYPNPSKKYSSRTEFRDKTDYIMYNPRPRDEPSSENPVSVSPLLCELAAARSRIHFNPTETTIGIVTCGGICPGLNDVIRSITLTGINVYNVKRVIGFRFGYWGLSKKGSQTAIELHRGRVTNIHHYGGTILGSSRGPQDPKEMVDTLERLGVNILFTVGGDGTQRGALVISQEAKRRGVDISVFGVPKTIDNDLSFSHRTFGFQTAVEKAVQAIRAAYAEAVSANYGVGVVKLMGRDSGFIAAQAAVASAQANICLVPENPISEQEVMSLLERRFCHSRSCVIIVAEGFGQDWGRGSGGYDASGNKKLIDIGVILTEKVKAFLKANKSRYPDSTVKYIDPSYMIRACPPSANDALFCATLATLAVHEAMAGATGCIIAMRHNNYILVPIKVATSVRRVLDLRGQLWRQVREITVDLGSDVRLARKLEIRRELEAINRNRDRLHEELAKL
Each record here notes measured IC50.
MEASURE: IC50

| SMILES NOTATION | RESULT |
| --- | --- |
| CCOC(=O)c1cccc(NS(=O)(=O)c2ccc(NC(=O)Cc3ccc(Cl)c(Cl)c3)cc2)c1 | > 57 µM |
| Cc1cc(NC(=O)c2ccc(NC(=O)Cc3ccc(Cl)c(Cl)c3)cc2)no1 | > 57 µM |
| Cc1cc(NC(=O)c2csc(NC(=O)Cc3ccc(Cl)c(Cl)c3)n2)no1 | > 57 µM |
